# tested-on: rhodesain (Trypanosoma brucei rhodesiense, UniProt Q95PM0)
# Construct: TEV cleavage site (C); GFP (C); hexahistidine-tag (6xHis) (C); made in house
# Sequence (Q95PM0 entry or part of it): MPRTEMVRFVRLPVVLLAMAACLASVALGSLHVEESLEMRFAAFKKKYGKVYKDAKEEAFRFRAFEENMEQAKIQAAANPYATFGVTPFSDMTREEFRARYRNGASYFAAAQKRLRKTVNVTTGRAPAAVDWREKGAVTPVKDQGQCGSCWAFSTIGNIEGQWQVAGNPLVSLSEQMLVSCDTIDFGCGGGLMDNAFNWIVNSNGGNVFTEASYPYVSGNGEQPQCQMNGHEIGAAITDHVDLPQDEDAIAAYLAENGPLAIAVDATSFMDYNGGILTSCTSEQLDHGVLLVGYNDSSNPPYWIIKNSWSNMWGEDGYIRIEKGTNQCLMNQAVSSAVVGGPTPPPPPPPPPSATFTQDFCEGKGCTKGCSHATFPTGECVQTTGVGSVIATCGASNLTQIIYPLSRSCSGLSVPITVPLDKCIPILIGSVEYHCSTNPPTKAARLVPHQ
# experiment-description: Rhodesain inhibition, Tian continuous fluorogenic assay (Cbz-Phe-Arg-AMC)
# Format: biochemical
# conditions: Cheng-Prusoff from IC50; substrate Cbz-Phe-Arg-AMC 10 µM, KM 0.8 µM; read-out: Ki (nM) Rhodesain
property-name: Ki (nM)
Could you give me the number in nM? Just the number is fine.

In one line, give reported Ki of the entry `CC(C)C[C@H](NC(=O)[C@H]1O[C@@H]1C(=O)O)C(=O)NCCCCN=C(N)N` .
13
